Assay: CEETOX_H295R_OHPROG: CeeTox H295R High-throughput Steroidogenesis Assay for OH-Progesterone (OHPROG) (AID 2283435);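 also: human adrenal H295R cells primed 48 h with 10 µM forskolin; 17alpha-hydroxyprogesterone secreted into medium measured by HPLC-MS/MS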
Conditions: actives raise or lower the signal
Active and inactive are the calls of the source. The calls were made as follows: active = hit-call score of the fitted dose curve at least 0.9, where 1 is the maximum; inactive = score below 0.9.
Measured property: AC50

The cases that follow already have their AC50 on record.
CCOCn1c(-c2ccc(Cl)cc2)c(C#N)c(Br)c1C(F)(F)F ... 13.2 µM (active)
O=[N+]([O-])c1ccc(Nc2ccccc2)cc1 ... 1.42 µM (active)

Below: the item to evaluate.
Query block: Fill blank: measured AC50 of the compound "Oc1c(Br)cc(Br)cc1Br" is ____.
Result block: 36 µM (active)

====

Read-out: E-selectin (Homo sapiens) (UniProt P16581)
Sequence (P16581 whole entry, looked up): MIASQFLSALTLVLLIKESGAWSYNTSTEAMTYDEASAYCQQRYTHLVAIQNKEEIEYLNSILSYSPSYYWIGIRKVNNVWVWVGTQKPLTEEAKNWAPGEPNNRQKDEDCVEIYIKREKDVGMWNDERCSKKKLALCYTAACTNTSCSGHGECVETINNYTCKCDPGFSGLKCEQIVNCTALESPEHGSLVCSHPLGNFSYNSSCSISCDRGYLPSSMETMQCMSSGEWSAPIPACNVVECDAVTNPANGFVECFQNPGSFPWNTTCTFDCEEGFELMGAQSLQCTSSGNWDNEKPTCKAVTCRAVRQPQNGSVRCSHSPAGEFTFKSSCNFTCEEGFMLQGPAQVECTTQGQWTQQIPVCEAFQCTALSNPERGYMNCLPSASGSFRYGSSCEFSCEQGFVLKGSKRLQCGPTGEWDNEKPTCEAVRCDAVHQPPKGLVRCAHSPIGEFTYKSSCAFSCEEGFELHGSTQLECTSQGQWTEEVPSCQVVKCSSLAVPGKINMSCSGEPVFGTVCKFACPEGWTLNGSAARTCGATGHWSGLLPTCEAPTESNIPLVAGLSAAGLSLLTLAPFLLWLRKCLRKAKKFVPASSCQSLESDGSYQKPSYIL
Assay: BSK_SAg_Eselectin: BioMAP Diversity Plus: SAg Assay for Eselectin Biomarker Activity (AID 2283091)
Conditions: primary human HUVEC with PBMC; actives raise or lower the signal
Activity calls are given as the source filed them. The calls were made as follows: active = hit-call score of the fitted dose curve at least 0.9, where 1 is the maximum; inactive = score below 0.9.
Your answer must be one of the following: active, inactive

Cc1cc(C(C)(C)c2ccc(O)c(C)c2)ccc1O ... active
CCOC(=O)C(SP(=S)(OC)OC)c1ccccc1 (centres undefined) ... inactive

Query block: So what was the verdict on "[Cl][Sn]([c]1ccccc1)([c]1ccccc1)[c]1ccccc1" in this test?
Result block: active

Query block: So what was the verdict on "Oc1cccc(-c2ccccc2)c1" in this test?
Result block: active

Query block: So what was the verdict on "Oc1c(Br)cc(Br)cc1Br" in this test?
Result block: active

Query block: So what was the verdict on "Oc1ccc(Cc2ccc(O)cc2)cc1" in this test?
Result block: inactive

Query block: So what was the verdict on "O=S(=O)(c1ccc(Cl)cc1)c1cc(Cl)c(Cl)cc1Cl" in this test?
Result block: inactive

Query block: So what was the verdict on "NC(=O)CCl" in this test?
Result block: inactive

Query block: So what was the verdict on "CC(C)O.CC(C)O.OCCN(CCO)CCO.OCCN(CCO)CCO.[Ti]" in this test?
Result block: inactive

Query block: So what was the verdict on "c1ccc2sc(SNC3CCCCC3)nc2c1" in this test?
Result block: inactive

====

Experiment: CCTE_Shafer_MEA_acute_cross_correlation_area: CCTE's Neural Acute Assay for Area of Cross Correlation, Shafer Lab (AID 2284024);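 also: area under pooled inter-electrode spike cross-correlation near zero lag as percent change from own baseline; curves fitted for loss of cross-correlation area so actives lower synchrony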
Calls of active or inactive are those of the source. Rule for the calls: active = hit-call score of the fitted dose curve at least 0.9, where 1 is the maximum; inactive = score below 0.9.
Your answer must be one of the following: Yes for active, No for inactive

Observe how each entry below is paired with its result.
CS(=O)(=O)c1ccc(C(=O)C2C(=O)CCCC2=O)c(Cl)c1COCC(F)(F)F ... No
Oc1cc(Cl)c(Cl)cc1Cl ... No
CC(C)(C)c1ccccc1O ... No
Cc1cc(C(F)(C(F)(F)F)C(F)(F)F)ccc1NC(=O)c1cccc(I)c1C(=O)NC(C)(C)CS(C)(=O)=O ... No
O=C(Cc1ccccc1)OCCc1ccccc1 ... No

Query block: So what was the verdict on "OCCCCO" in this test?
Result block: No

Query block: So what was the verdict on CC(C)[C@@H](Nc1ccc(C(F)(F)F)cc1Cl)C(=O)OC(C#N)c1cccc(Oc2ccccc2)c1 (stereo partly drawn) in this test?
Result block: Yes

Query block: So what was the verdict on "CCCCOC(=O)COC(=O)c1ccccc1C(=O)OCCCC" in this test?
Result block: Yes

====

Assay: Tanguay_ZF_120hpf_ActivityScore_legacy: (Legacy) Oregon State University Tanguay Lab 120 Hour Post-fertilization zebrafish Assay Score for Activity (AID 2283742);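 as to AC50: dechorionated Tropical 5D wild-type zebrafish embryos held singly per well; static exposure from 6 hpf until 120 hpf at 28 °C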
Calls of active or inactive are those of the source. The calls were made as follows: active = hit-call score of the fitted dose curve at least 0.9, where 1 is the maximum; inconclusive = response in the unintended direction; inactive = score below 0.9.
Measured property: AC50

The cases that follow already have their AC50 on record.
Oc1cc(Cl)c(Cl)cc1Cl ... 32.1 µM (active)
N#Cc1cccnc1 ... inactive
Cc1cc(C)cc(C)c1 ... inactive
Oc1c(Cl)cc(Cl)cc1Cl ... 19.1 µM (active)
CC(C)O.CC(C)O.OCCN(CCO)CCO.OCCN(CCO)CCO.[Ti] ... inactive

Query block: Fill blank: measured AC50 of the compound "CCCCCCCCCCCCc1cccc(S(=O)(=O)O)c1" is ____.
Result block: inactive

Query block: Fill blank: measured AC50 of the compound "O=C(N[C@H]1CN2CCC1CC2)c1ccc2c(c1)OCCO2" is ____.
Result block: inactive

Query block: Fill blank: measured AC50 of the compound "CC(C)(C)c1ccccc1O" is ____.
Result block: inactive

Query block: Fill blank: measured AC50 of the compound "OCCN(CCO)CCO" is ____.
Result block: inactive

Query block: Fill blank: measured AC50 of the compound "CN(C)C(=S)S" is ____.
Result block: 0.00103 µM (active)

====

Experiment: BSK_LPS_SRB: Viability Assessment in the BioMAP Diversity Plus: LPS Assay (AID 2283079);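 also: total protein by sulforhodamine B absorbance as a cytotoxicity measure; measured one day after compound addition; fitted in both directions against DMSO so loss or gain of signal counts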
Details: primary human HUVEC with PBMC
Active and inactive are the calls of the source. Rule for the calls: active = hit-call score of the fitted dose curve at least 0.9, where 1 is the maximum; inactive = score below 0.9.
Your answer must be one of the following: t = active, f = inactive

Observe how each entry below is paired with its result.
Cc1ccccc1OP(=O)(Oc1ccccc1)Oc1ccccc1 ... t
O=c1oc2ccccc2c(O)c1C(CC(O)c1ccc(-c2ccc(Br)cc2)cc1)c1ccccc1 (centres undefined) ... t
CCOP(=S)(OCC)OP(=S)(OCC)OCC ... f
CCOP(=O)(OCC)OC(=CCl)c1ccc(Cl)cc1Cl ... f
Cc1cccc(OP(=O)(Oc2cccc(C)c2)Oc2cccc(C)c2)c1 ... f

Query block: So what was the verdict on "Oc1c(Br)cc(Br)cc1Br" in this test?
Result block: f

Query block: So what was the verdict on "OCCCCO" in this test?
Result block: f

Query block: So what was the verdict on "Clc1cccc(Cl)c1" in this test?
Result block: f

Query block: So what was the verdict on "Nc1ccc(N)cc1" in this test?
Result block: f

Query block: So what was the verdict on "CC(C)O.CC(C)O.OCCN(CCO)CCO.OCCN(CCO)CCO.[Ti]" in this test?
Result block: f

====

Assay: BSK_BT_Bcell_Proliferation: Viability Assessment in the BioMAP Diversity Plus: BT Assay for B cell Proliferation (AID 2284227)
Details: primary human B cells with PBMC
Active and inactive are the calls of the source. How the source made its calls: active means hit-call score of the fitted dose curve at least 0.9, where 1 is the maximum; inactive means score below 0.9.
Your answer must be one of the following: active, inactive

Query block: So what was the verdict on "Nc1ccc(N)cc1" in this test?
Result block: inactive

Query block: So what was the verdict on "CCCCCCCCCCCCN(C)C" in this test?
Result block: inactive

Query block: So what was the verdict on OC(Cc1ccccc1Cl)(Cn1cncn1)C1(Cl)CC1 (configuration not stated) in this test?
Result block: inactive

Query block: So what was the verdict on "Cc1cc(C(C)(C)c2ccc(O)c(C)c2)ccc1O" in this test?
Result block: inactive

====

Assay: ATG_M_19_CIS: Attagene CIS-FACTORIAL HepG2 Assay for M19 Transcription Factor (Internal Marker) (AID 2282939)
Details: HepG2 Attagene CIS-FACTORIAL M19 internal marker reporter; actives raise or lower the signal
Active and inactive are the calls of the source. The calls were made as follows: active = hit-call score of the fitted dose curve at least 0.9, where 1 is the maximum; inactive = score below 0.9.
Measured property: outcome

Cc1c([N+](=O)[O-])c(C)c([N+](=O)[O-])c(C(C)(C)C)c1[N+](=O)[O-] ... inactive
CCCCCCCCCCCCN(C)C ... inactive
O=S(=O)(Oc1ccc(Cl)cc1)c1ccc(Cl)cc1 ... inactive
CNC(=O)N(C)c1nc2ccccc2s1 ... inactive
OC[C@@H](O)[C@H]1O[C@@H]2O[C@H](C(Cl)(Cl)Cl)O[C@@H]2[C@H]1O ... inactive
O=C(N[C@H]1CN2CCC1CC2)c1ccc2c(c1)OCCO2 ... inactive
C[As+](C)(C)CC(=O)[O-] ... inactive
Nc1c(Oc2ccccc2)cc(O)c2c1C(=O)c1ccccc1C2=O ... inactive
CC1(C)COP(Oc2ccccc2)OC1 ... inactive
CC(C)(C1CCC(O)CC1)C1CCC(O)CC1 (stereo not drawn) ... inactive

Query block: Fill blank: measured outcome of the compound CC(C=O)Cc1ccc2c(c1)OCO2 (stereo not drawn) is ____.
Result block: inactive

Query block: Fill blank: measured outcome of the compound "CCC[N+](CCC)(CCC)CCC" is ____.
Result block: inactive

Query block: Fill blank: measured outcome of the compound "c1ccc(-c2cccc(-c3ccccc3)c2)cc1" is ____.
Result block: inactive

====

Read-out: CD38, CD38 (gene 952)
Test: BSK_SAg_CD38: BioMAP Diversity Plus: SAg Assay for CD38 Biomarker Activity (AID 2283087)
Conditions: primary human HUVEC with PBMC; actives raise or lower the signal
Active and inactive are the calls of the source. Rule for the calls: active = hit-call score of the fitted dose curve at least 0.9, where 1 is the maximum; inactive = score below 0.9.
Your answer must be one of the following: TRUE (active), FALSE (inactive)

OCCCCO ... FALSE

Query block: So what was the verdict on "Cc1cc(Cl)ccc1N" in this test?
Result block: FALSE

Query block: So what was the verdict on "Cc1c([N+](=O)[O-])c(C)c([N+](=O)[O-])c(C(C)(C)C)c1[N+](=O)[O-]" in this test?
Result block: TRUE

Query block: So what was the verdict on "CN(C)C(=S)S" in this test?
Result block: FALSE

Query block: So what was the verdict on "Cc1cc(C(C)(C)c2ccc(O)c(C)c2)ccc1O" in this test?
Result block: TRUE

Query block: So what was the verdict on OC(Cc1ccccc1Cl)(Cn1cncn1)C1(Cl)CC1 (centres undefined) in this test?
Result block: FALSE

Query block: So what was the verdict on "CCOC(=O)CCN(SN(C)C(=O)Oc1cccc2c1OC(C)(C)C2)C(C)C" in this test?
Result block: TRUE

Query block: So what was the verdict on "c1ccc(-c2cccc(-c3ccccc3)c2)cc1" in this test?
Result block: TRUE
